Source: patent US20210238260

Biological target: Factor X (FX), P00742
Sequence (P00742 whole entry, looked up): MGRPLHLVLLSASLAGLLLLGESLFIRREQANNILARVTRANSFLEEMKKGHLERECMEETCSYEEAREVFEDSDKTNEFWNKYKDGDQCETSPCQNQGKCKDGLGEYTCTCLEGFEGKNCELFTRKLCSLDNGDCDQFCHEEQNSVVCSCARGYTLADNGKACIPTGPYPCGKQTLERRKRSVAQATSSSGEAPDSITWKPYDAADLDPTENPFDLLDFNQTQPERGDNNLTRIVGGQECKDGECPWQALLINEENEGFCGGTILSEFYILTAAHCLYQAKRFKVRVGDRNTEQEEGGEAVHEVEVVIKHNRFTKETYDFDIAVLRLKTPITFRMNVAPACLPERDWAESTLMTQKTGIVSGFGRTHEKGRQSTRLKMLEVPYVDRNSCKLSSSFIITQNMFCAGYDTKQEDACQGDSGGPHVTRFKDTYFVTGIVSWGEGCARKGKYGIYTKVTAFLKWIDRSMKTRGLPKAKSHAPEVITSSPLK
Exam item: assign true (1) to entries whose kcat is below 2 s⁻¹ and false (0) to entries at or above 2 s⁻¹. Note that a value of exactly 2 s⁻¹ receives false (0).

* FIXa-D203N/F205T/K228N (protein) chain 1: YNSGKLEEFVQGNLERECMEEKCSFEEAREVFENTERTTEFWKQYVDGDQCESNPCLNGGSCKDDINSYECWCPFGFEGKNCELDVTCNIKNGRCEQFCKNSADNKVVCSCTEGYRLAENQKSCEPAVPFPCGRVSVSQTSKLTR chain 2: VVGGEDAKPGQFPWQVVLNGKVNATCGGSIVNEKWIVTAAHCVETGVNITVVAGEHNIEETEHTEQKRNVIRIIPHHNYNAAINKYNHDIALLELDEPLVLNSYVTPICIADKEYTNIFLKFGSGYVSGWGRVFHKGRSALVLQYLRVPLVDRATCLRSTKFTIYNNMFCAGFHEGGRDSCQGDSGGPHVTEVEGTSFLTGIISWGEECAMKGKYGIYTKVSRYVNWIKEKTKLT | true (1)
* FIXa-Y155F/K247N/N249S/R318Y/R338E/E410N (protein) chain 1: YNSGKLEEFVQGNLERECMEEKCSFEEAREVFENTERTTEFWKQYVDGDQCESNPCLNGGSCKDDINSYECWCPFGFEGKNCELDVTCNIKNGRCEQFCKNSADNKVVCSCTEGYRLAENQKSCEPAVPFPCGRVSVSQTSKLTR chain 2: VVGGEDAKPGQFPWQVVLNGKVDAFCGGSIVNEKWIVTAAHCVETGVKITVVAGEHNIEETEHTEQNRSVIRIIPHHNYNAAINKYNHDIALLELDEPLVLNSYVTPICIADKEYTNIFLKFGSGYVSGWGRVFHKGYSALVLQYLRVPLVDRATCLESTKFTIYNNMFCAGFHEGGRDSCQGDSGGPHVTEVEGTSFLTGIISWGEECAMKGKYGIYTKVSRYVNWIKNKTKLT | false (0)
* FIXa variant D85N/K228N/R318Y/R338E/R403E/E410N (protein) chain 1: YNSGKLEEFVQGNLERECMEEKCSFEEAREVFENTERTTEFWKQYVDGDQCESNPCLNGGSCKDDINSYECWCPFGFEGKNCELNVTCNIKNGRCEQFCKNSADNKVVCSCTEGYRLAENQKSCEPAVPFPCGRVSVSQTSKLTR chain 2: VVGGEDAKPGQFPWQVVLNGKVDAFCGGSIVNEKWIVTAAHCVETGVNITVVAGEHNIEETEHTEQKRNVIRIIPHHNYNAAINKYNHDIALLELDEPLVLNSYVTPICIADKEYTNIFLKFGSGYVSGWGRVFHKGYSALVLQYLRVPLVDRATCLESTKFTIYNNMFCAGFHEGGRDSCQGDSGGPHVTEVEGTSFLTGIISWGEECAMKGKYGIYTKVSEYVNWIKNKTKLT | false (0)
* FIXa-D203N/F205T/R338A (protein) chain 1: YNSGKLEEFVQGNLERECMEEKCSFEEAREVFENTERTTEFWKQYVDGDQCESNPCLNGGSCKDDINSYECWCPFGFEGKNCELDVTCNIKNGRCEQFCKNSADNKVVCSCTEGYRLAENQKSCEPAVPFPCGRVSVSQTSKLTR chain 2: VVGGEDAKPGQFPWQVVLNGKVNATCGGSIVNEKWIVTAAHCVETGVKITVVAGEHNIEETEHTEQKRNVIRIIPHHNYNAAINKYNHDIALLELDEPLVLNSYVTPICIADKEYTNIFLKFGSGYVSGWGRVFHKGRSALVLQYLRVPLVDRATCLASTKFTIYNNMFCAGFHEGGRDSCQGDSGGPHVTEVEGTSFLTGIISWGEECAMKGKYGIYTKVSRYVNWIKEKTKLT | false (0)
* FIXa-D203N/F205T/R338E/R403E (protein) chain 1: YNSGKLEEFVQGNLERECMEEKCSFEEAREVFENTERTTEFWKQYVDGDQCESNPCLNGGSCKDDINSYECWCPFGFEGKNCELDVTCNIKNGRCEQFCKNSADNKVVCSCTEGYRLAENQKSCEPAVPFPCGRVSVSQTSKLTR chain 2: VVGGEDAKPGQFPWQVVLNGKVNATCGGSIVNEKWIVTAAHCVETGVKITVVAGEHNIEETEHTEQKRNVIRIIPHHNYNAAINKYNHDIALLELDEPLVLNSYVTPICIADKEYTNIFLKFGSGYVSGWGRVFHKGRSALVLQYLRVPLVDRATCLESTKFTIYNNMFCAGFHEGGRDSCQGDSGGPHVTEVEGTSFLTGIISWGEECAMKGKYGIYTKVSEYVNWIKEKTKLT | true (1)
* FIXa-D104N/K106S/Y155F/K228N/K247N/N249S (protein) chain 1: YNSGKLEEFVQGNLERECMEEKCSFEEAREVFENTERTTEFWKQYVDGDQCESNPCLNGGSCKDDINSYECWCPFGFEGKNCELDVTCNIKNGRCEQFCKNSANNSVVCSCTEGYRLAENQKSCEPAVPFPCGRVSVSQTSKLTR chain 2: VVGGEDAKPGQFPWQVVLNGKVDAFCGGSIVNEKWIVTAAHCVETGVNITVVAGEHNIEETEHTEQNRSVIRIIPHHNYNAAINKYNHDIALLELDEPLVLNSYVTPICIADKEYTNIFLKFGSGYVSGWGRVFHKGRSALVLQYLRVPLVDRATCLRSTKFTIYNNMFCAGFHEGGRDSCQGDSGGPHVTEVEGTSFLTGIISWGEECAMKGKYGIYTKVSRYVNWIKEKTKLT | false (0)

With those in mind, consider the next protein.
Enquiry: Answer whether the protein FIXa-A103N/N105S/Y155F/R318Y/R338E/R403E/E410N (protein) chain 1: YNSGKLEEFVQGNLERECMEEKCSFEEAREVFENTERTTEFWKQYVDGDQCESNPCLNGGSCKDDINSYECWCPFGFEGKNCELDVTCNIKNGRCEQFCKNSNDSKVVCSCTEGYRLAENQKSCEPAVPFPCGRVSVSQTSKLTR chain 2: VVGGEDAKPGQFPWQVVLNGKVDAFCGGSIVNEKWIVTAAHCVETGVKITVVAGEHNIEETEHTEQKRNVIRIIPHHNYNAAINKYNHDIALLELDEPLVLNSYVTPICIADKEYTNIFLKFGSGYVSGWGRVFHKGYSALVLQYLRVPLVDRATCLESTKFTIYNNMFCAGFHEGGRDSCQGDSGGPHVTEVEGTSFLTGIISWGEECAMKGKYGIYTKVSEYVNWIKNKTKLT has kcat strictly less than 2 s⁻¹
Return: false (0)
